Task for the reader: assign each of the following molecules its reported pEC50.
Tested on: Human immunodeficiency virus 1
assay.procedure: Effective concentration required to inhibit HIV-1 replication in CEM-SS cell line
Assay type: functional, organism-based
condition.description: Human immunodeficiency virus 1, CEM-SS
Convention used: pEC50 is expressed as -log10 of the molar concentration.

Query: Give recorded pEC50 with Human immunodeficiency virus 1 for the following molecule: COC(=O)[C@H](COC(C)=O)NP(=O)(OCCSC(=O)C(C)(C)C)OCC1OC(n2cc(C)c(=O)[nH]c2=O)CC1N=[N+]=[N-] (stereo partly drawn)
Result: 8.15

Query: Give recorded pEC50 with Human immunodeficiency virus 1 for the following molecule: COC(=O)[C@H](Cc1ccccc1)NP(=O)(OCCSC(=O)C(C)(C)C)OCC1OC(n2cc(C)c(=O)[nH]c2=O)CC1N=[N+]=[N-] (stereo partly drawn)
Result: 7.57

Query: Give recorded pEC50 with Human immunodeficiency virus 1 for the following molecule: COC(=O)[C@H](Cc1ccc(O)cc1)NP(=O)(OCCSC(=O)C(C)(C)C)OCC1OC(n2cc(C)c(=O)[nH]c2=O)CC1N=[N+]=[N-] (stereo partly drawn)
Result: 7.05

Query: Give recorded pEC50 with Human immunodeficiency virus 1 for the following molecule: COC(=O)[C@H](C)NP(=O)(OCCSC(=O)C(C)(C)C)OCC1OC(n2cc(C)c(=O)[nH]c2=O)CC1N=[N+]=[N-] (stereo partly drawn)
Result: 7.27

Query: Give recorded pEC50 with Human immunodeficiency virus 1 for the following molecule: COC(=O)[C@H](C)NP(=O)(OC[C@H]1O[C@@H](n2cc(C)c(=O)[nH]c2=O)C[C@@H]1N=[N+]=[N-])Oc1ccccc1 (stereo partly drawn)
Result: 7.30

Query: Give recorded pEC50 with Human immunodeficiency virus 1 for the following molecule: COC(=O)C(C)(C)NP(=O)(OCCSC(=O)C(C)(C)C)OCC1OC(n2cc(C)c(=O)[nH]c2=O)CC1N=[N+]=[N-] (stereo not drawn)
Result: 7.10

Query: Give recorded pEC50 with Human immunodeficiency virus 1 for the following molecule: COC(=O)CNP(=O)(OCCSC(=O)C(C)(C)C)OCC1OC(n2cc(C)c(=O)[nH]c2=O)CC1N=[N+]=[N-] (stereo not drawn)
Result: 8.05

Query: Give recorded pEC50 with Human immunodeficiency virus 1 for the following molecule: CCC(NP(=O)(OCCSC(=O)C(C)(C)C)OCC1OC(n2cc(C)c(=O)[nH]c2=O)CC1N=[N+]=[N-])C(=O)OC (stereo not drawn)
Result: 8.22

* * *

Test system: Human immunodeficiency virus 1
assay.procedure: Effective concentration required to inhibit HIV-1 replication in CEM-SS cell line
Assay type: functional, organism-based
condition.description: Human immunodeficiency virus 1, CEM-SS
Task for the reader: assign each of the following compounds its reported EC50.
Write the number in µM without appending the unit.

Query: Quick check: EC50 of Cc1cn(C2CC(N=[N+]=[N-])C(COP(=O)(NC(C)C)OCCSC(=O)C(C)(C)C)O2)c(=O)[nH]c1=O (configuration not stated) ?
Result: 0.02

Query: Quick check: EC50 of Cc1cn([C@H]2C[C@H](N=[N+]=[N-])[C@@H](CO)O2)c(=O)[nH]c1=O [ZIDOVUDINE] ?
Result: 0.006

Query: Quick check: EC50 of COC(=O)[C@H](CO[Si](C)(C)C(C)(C)C)NP(=O)(OCCSC(=O)C(C)(C)C)OCC1OC(n2cc(C)c(=O)[nH]c2=O)CC1N=[N+]=[N-] (some centres not stated) ?
Result: 0.1

Query: Quick check: EC50 of Cc1cn(C2CC(N=[N+]=[N-])C(COP(=O)(Nc3ccccc3)OCCSC(=O)C(C)(C)C)O2)c(=O)[nH]c1=O (configuration not stated) ?
Result: 0.005

Query: Quick check: EC50 of COC(=O)[C@@H](C)NP(=O)(OCCSC(=O)C(C)(C)C)OCC1OC(n2cc(C)c(=O)[nH]c2=O)CC1N=[N+]=[N-] (some centres not stated) ?
Result: 0.07

Query: Quick check: EC50 of Cc1cn(C2CC(N=[N+]=[N-])C(COP(=O)(OCCSC(=O)C(C)(C)C)N3CCCCC3)O2)c(=O)[nH]c1=O (configuration not stated) ?
Result: 0.02

Query: Quick check: EC50 of COC(=O)C(C)NP(=O)(OCCSC(=O)C(C)(C)C)OCC1OC(n2cc(C)c(=O)[nH]c2=O)CC1N=[N+]=[N-] (configuration not stated) ?
Result: 0.02

Cited source: ChEMBL document CHEMBL1145130
